System: L1210 leukemia ip in BDF1 mice, survival T/C
Test: NCI In Vivo Anticancer Drug Screen. Data for tumor model L1210 Leukemia (intraperitoneal) in B6D2F1 (BDF1) mice
Details: endpoint: mean survival time; dose: 100.0 mg/kg/injection; schedule: Q04DX003 (ip); vehicle: saline with Tween-80; higher = longer survival
Toxic doses and inconclusive results are not listed.
Value Type: T/C

INSERT INTO assay_data (molecule, tested_target, measured_result) VALUES
  ('O=C(N/N=C/c1ccccc1O)c1ccccc1O', 'L1210 leukemia ip in BDF1 mice, survival T/C', '95 % of control'),
  ('O=C1NCN(c2ccccc2)C12CCNCC2', 'L1210 leukemia ip in BDF1 mice, survival T/C', '89 % of control'),
  ('O=c1[nH]ccc2c(O)cccc12', 'L1210 leukemia ip in BDF1 mice, survival T/C', '101 % of control');

Batch request: T/C per item, same order as input.
1. CCCCC(CC)CCC(O)CC (centres undefined)
2. CC(=O)c1cccc(NC(=S)NC(=O)/C=C/c2ccccc2)c1
3. NC(=O)C1(c2ccccc2)CCN(Cc2ccccc2)CC1
4. Cc1ccc(C(=O)CCCCl)c(C)c1
5. O=C(COc1ccc(Cl)cc1Cl)NC(O)C(Cl)(Cl)Cl (centres undefined)

Output line:
["98 % of control", "100 % of control", "92 % of control", "99 % of control", "100 % of control"]

---

System: L1210 leukemia ip in BDF1 mice, survival T/C
Test: NCI In Vivo Anticancer Drug Screen. Data for tumor model L1210 Leukemia (intraperitoneal) in B6D2F1 (BDF1) mice
Settings: endpoint: mean survival time; dose: 100.0 mg/kg/injection; schedule: Q01DX009 (ip); vehicle: saline with Tween-80; higher = longer survival
Inconclusive results and toxic doses are left out.
I'd appreciate it if you could supply T/C values for the items below.

Worked cases, T/C given:
INSERT INTO measurements (compound, measured_result) VALUES
  ('COC(OC)c1[nH]c(=S)[nH]c(=O)c1Cc1cccc2ccccc12', '96 % of control'),
  ('O=C(COc1ccc(Cl)cc1Cl)NC(O)C(Cl)(Cl)Cl (configuration not stated)', '94 % of control');

Batch request: T/C per item, same order as input.
1. COc1ccc(C=Nc2ccc3c(c2)OCO3)cc1Br
2. CCCN1C(=O)C=CC1=O
3. O=C(CC(O)(C(F)(F)F)C(F)(F)F)c1ccc(-c2ccccc2)cc1
4. Cc1ccc(S(=O)(=O)/C=C(\I)c2ccc([N+](=O)[O-])cc2)cc1
5. COc1ccc(C2C3CCC(C3)C2N)cc1 (configuration not stated)
6. N=c1c2ncn(C3CCCC3)c2ncn1O

Output line:
["88 % of control", "95 % of control", "98 % of control", "98 % of control", "88 % of control", "103 % of control"]

Batch request: T/C per item, same order as input.
1. N#CCC(=O)NCc1ccco1
2. O=C(CCc1ccc(O)cc1)N/N=C/c1cc(Br)ccc1O
3. Cc1ccc(S(=O)(=O)Nc2ccc(C#N)c3ccccc23)cc1
4. C=CCC(C(=O)OC)C(=O)C(C)(C)C (configuration not stated)
5. CC(=O)OC1CCC2(C)C(=CC=C3C2CCC2(C)C3CC(OC(C)=O)C2C(C)C2CCC(C)CN2C(C)=O)C1 (configuration not stated)
6. C/C(=N\N1CCCCC1)c1ccc(NC(=O)C(Cl)Cl)cc1
7. NC(=O)c1[nH]cnc1/N=N/N(CCO)CCO
8. O=C(Nc1ccc(F)cc1)c1ccc(C(=O)Nc2ccc(F)cc2)cc1

Output line:
["103 % of control", "97 % of control", "92 % of control", "92 % of control", "91 % of control", "106 % of control", "105 % of control", "100 % of control"]
